These data points were gathered from PubChem BioAssay.

Assay: viability loss with induced miR-34 in A549 – imaging, A549 dox-inducible miR-34, nuclei and caspase counts, primary screen (AID 1347080)
Settings: A549 miR-34 inducible, Hoechst nuclei count, 48 h; stronger effect = lower value; cell number ratio, induced over uninduced
Each record's fold change is compared with low bracket (below 0.9), middle bracket (0.9 to below 1), high bracket (1 or more) to give its class.

| MOLECULE | ASSIGNED_CLASS |
| --- | --- |
| C=C1C(=O)OC2C1CCC(C)=CCC[C@@]1(C)OC21 (some centres not stated) | middle bracket |
| CCCC(NC(=O)C1[C@H]2CCC[C@H]2CN1C(=O)C(NC(=O)C(NC(=O)c1cnccn1)C1CCCCC1)C(C)(C)C)C(=O)C(=O)NC1CC1 (some centres not stated) | low bracket |
| CC/C=C\C/C=C\C/C=C\C/C=C\C/C=C\C/C=C\CCC(=O)O[C@H](COCCCCCCCCCCCCCCCC)COP(=O)([O-])OCC[N+](C)(C)C | high bracket |
| CN(C)Cc1ccc(S(=O)(=O)n2ccc(C=CC(=O)NO)c2)cc1 | low bracket |
| Cc1cc(N2CCOCC2)cc2[nH]c(-c3c(NCC(O)c4cccc(Cl)c4)cc[nH]c3=O)nc12 (configuration not stated) | high bracket |
| C=C(C)C1CC[C@]2(C(=O)O)CC[C@]3(C)[C@H](CC[C@@H]4[C@@]5(C)CCC(O)C(C)(C)[C@@H]5CC[C@]43C)[C@@H]12 (some centres not stated) | low bracket |
| CCC(C)[C@@H](CO[C@@H](Cc1ccccc1)C(=O)N[C@@H](CCS(C)(=O)=O)C(=O)OC(C)C)NC[C@@H](N)CS (some centres not stated) | middle bracket |
| CC[C@]1(O)C[C@@H]2CN(CCc3c([nH]c4ccccc34)[C@@](C(=O)OC)(c3cc4c(cc3OC)N(C=O)[C@@H]3[C@@]45CCN4CC=C[C@@](CC)(C(OC(C)=O)[C@]3(O)C(=O)OC)[C@H]45)C2)C1 (some centres not stated) | high bracket |
| C=C1CCC(O)CC1=CC=C1CCC[C@]2(C)C(C(C)C=CC(C)C(C)C)CC[C@@H]12 (some centres not stated) | middle bracket |
| Nc1nccc2c1ncn2C1C=C(CO)C(O)C1O (configuration not stated) | middle bracket |

====

Each entry below carries its recorded fold change.
Assay: viability loss with induced miR-34 in A549 – imaging, A549 dox-inducible miR-34, nuclei and caspase counts, primary screen (AID 1347080)
Details: A549 miR-34 inducible, Hoechst nuclei count, 48 h; measured here: relative caspase fold change +Dox/-Dox
MEASURED_ATTRIBUTE: fold change

| COMPOUND | MEASURED_ATTRIBUTE | NUMERIC_READOUT |
| --- | --- | --- |
| C[C@@H]1C[C@H]2[C@@H]3C[C@H](F)C4=CC(=O)C=C[C@]4(C)[C@@]3(Cl)[C@@H](O)C[C@]2(C)[C@H]1C(=O)COC(=O)C(C)(C)C | fold change | 0.704 |
| CCCCC/C=C\C[C@H](O)/C=C/C=C\C/C=C\CCCC(=O)O | fold change | 1.13 |
| O=C1Nc2ccc(I)cc2C1=Cc1cc(Br)c(O)c(Br)c1 | fold change | 0.568 |
| CC(C)(O)C1CC[C@@](C)([C@@H]2C(O)C[C@@]3(C)[C@@H]4CC(OC5OC(CO)C(O)C(O)C5O)[C@H]5C(C)(C)C(OC6OCC(O)C(O)C6O)CC[C@@]56C[C@]46CC[C@]23C)O1 (stereo partly drawn) | fold change | 0.796 |
| CC1(C)CCC(NC(=O)[C@@H](N)CCC(=O)O)CC1 | fold change | 1.15 |
| NCC1OC(O[C@@H]2[C@H](O)C(OC3C(O)C(N)CC(N)C3OC3OC(CO)C(O)C(O)C3N)O[C@@H]2CO)C(N)C(O)C1O (stereo partly drawn) | fold change | 1.38 |
| CC(C)[C@@H]1NC(=O)[C@H](Cc2ccccc2)NC(=O)[C@@H](CC(=O)O)NC(=O)CNC(=O)[C@H](CCCN=C(N)N)NC1=O | fold change | 0.655 |
| NCCCCCCCCCCN | fold change | 1.23 |

====

Each entry below carries its recorded survival.
Test: compounds altering viability of human ES cells (AID 493140);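 note: cells exposed to compounds for four days before counting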
Settings: human embryonic stem cell survival screen; stronger effect = higher value
Calls of active or inactive are those of the source. The rule behind the calls is not given here.
MEASURED_ATTRIBUTE: survival

| COMPOUND | RESULT |
| --- | --- |
| CCCCCCCCCC(=O)N[C@H](CN1CCOCC1)[C@H](O)c1ccccc1 | 80.8 (inactive) |
| CCCCC[C@H](O)/C=C/[C@H]1OC(=O)C[C@H](O)[C@@H]1C/C=C\CCCC(=O)O | 110 (inactive) |
| CC[C@@]1([C@@H]2O[C@@H]([C@H]3O[C@@](O)(CO)[C@H](C)C[C@@H]3C)C[C@@H]2C)CC[C@H]([C@]2(C)CC[C@]3(C[C@H](O)[C@@H](C)[C@@H]([C@@H](C)[C@@H](OC)C(C)C(=O)O)O3)O2)O1 (some centres not stated) | 0.417 (inactive) |
| CCCCC[C@H](O)/C=C/[C@@H]1[C@@H](C/C=C\CCCC(=O)O)[C@@H](O)C[C@H]1O (tested in a mixture with another compound) | 6.75 (inactive) |
| CCCCCCCCCCCCCCCCOC[C@H](COP(=O)([O-])OCC[N+](C)(C)C)OC(=O)NC | 80.6 (inactive) |
| CCCCC/C=C\C/C=C\C/C=C\C=C\C(O)CCCC(=O)O (configuration not stated) | 122 (inactive) |
| C[C@@H]1C(=O)O[C@H]2CC34[C@H]5C[C@@H](C(C)(C)C)C36[C@@H](OC(=O)[C@@H]6O)OC4(C(=O)O5)[C@]21O (some centres not stated) | 10.1 (inactive) |

====

Assay: viability loss with induced miR-34 in A549 – imaging, A549 dox-inducible miR-34, nuclei and caspase counts, primary screen (AID 1347080)
Conditions: A549 miR-34 inducible, Hoechst nuclei count, 48 h; measured here: total cells without miR-34 induction
Mark 1 only when cell count stays strictly below 9000. Values equal to the cut-off are -1.

| MOLECULE | ASSIGNED_CLASS |
| --- | --- |
| CCn1ncc(NC(=O)Cn2ccc(-c3ncnn3C)n2)n1 | -1 |
| Cn1cc(C=CC(=O)c2cccc(F)c2)cc1C=CC(=O)NO | 1 |
| COC1C(OC(C)=O)CC(=O)OC(C)CC=CC=CC(O)C(C)CC(CC=O)C1OC1OC(C)C(OC2C[C@@](C)(OC(=O)CC(C)C)C(O)C(C)O2)C(N(C)C)C1O (some centres undefined) | -1 |
| Cn1nc(NC(=O)Cn2ccc(-c3ccco3)n2)c2ccccc21 | 1 |
| CC(=O)OCC(=O)[C@]12OC(C)(C)OC1C[C@H]1[C@@H]3CC(F)C4=CC(=O)C=C[C@]4(C)[C@]3(F)C(O)C[C@@]12C (some centres undefined) | 1 |
| CCC[C@@H]1OC2C[C@H]3[C@@H]4CCC5=CC(=O)C=C[C@]5(C)[C@@H]4C(O)C[C@]3(C)[C@@]2(C(=O)CO)O1 (some centres undefined) | 1 |
| Cc1ccc(Sc2cccc3nc(N)nc(N)c23)cc1 | 1 |
| CCCCCCOC(=O)N=C(N)c1ccc(NCc2nc3cc(C(=O)N(CCC(=O)OCC)c4ccccn4)ccc3n2C)cc1 | -1 |

====

Each entry below carries its recorded fluorescence slope change.
Biological target: ATP-dependent translocase ABCB1 (Homo sapiens) (UniProt P08183)
Sequence (P08183 whole entry, looked up): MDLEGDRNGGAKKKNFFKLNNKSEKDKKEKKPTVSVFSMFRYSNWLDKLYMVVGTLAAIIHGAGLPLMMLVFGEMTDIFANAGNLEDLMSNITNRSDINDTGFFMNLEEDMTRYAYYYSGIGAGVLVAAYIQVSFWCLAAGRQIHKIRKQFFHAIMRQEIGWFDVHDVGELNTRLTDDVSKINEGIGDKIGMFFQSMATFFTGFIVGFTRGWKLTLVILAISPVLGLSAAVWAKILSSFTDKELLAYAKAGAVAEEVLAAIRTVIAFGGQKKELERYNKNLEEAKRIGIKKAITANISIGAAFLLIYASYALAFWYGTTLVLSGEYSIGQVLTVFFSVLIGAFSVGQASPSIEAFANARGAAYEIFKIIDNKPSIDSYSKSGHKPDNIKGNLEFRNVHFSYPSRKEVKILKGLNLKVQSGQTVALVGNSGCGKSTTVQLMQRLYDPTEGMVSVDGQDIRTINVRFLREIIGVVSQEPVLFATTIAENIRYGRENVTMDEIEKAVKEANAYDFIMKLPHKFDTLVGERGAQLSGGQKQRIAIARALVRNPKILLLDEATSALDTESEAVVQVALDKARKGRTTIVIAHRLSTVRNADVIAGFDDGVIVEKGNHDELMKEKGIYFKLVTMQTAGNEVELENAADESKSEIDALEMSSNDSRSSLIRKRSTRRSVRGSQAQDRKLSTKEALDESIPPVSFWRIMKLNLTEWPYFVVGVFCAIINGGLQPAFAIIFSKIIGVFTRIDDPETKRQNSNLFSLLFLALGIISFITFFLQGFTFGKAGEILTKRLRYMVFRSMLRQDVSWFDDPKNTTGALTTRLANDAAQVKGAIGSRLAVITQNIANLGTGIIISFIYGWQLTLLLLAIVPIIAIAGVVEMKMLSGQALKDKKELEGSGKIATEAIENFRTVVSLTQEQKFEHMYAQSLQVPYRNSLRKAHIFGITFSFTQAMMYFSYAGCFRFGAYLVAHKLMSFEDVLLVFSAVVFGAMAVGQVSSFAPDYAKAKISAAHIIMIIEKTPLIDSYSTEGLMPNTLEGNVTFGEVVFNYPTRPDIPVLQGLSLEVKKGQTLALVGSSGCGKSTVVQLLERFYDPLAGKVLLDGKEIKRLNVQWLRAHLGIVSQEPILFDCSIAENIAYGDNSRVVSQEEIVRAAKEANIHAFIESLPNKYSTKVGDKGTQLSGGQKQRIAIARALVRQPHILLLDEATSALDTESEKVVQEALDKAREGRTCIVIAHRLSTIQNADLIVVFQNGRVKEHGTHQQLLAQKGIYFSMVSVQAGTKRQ
Test: P-glycoprotein substrate transport blockade – cell-based (AID 377)
Conditions: MDR1-expressing cells, fluorescent substrate accumulation slope; stronger effect = higher value; concentration not given here
Results filed as inconclusive are left out.

| MOLECULE | fluorescence slope change / % |
| --- | --- |
| CO[C@@H]1[C@@H](OC2OC(C)C(OC3CC(C)(O)C(OC(=O)CC(C)C)C(C)O3)C(N(C)C)C2O)[C@@H](CC=O)C[C@@H](C)[C@@H](O)/C=C/C=C/C[C@@H](C)OC(=O)C[C@H]1OC(C)=O (some centres not stated) | 127 |
| O=S(=O)(O)CCN1CCN(CCO)CC1 | 26.7 |
| CC(=O)Nc1c(I)c(C(=O)NC2[C@H](O)OC(CO)[C@@H](O)[C@H]2O)c(I)c(N(C)C(C)=O)c1I (some centres not stated) | 95.2 |
| C=C1CC23CC4C5[C@@]6(C)C[C@H](OC(=O)c7ccccc7)[C@@H](OC(C)=O)[C@@]57C2[C@H](OC(C)=O)[C@@H]1[C@H](O)[C@H]3[C@H]7N4C6 | 12.6 |
| Nc1cccc2c1C(=O)c1cccc(N)c1C2=O | 105 |
| COc1c(O[C@@H]2O[C@H](CO)[C@@H](O)[C@H](O)[C@H]2O)cc2c(c1OC)-c1ccc(SC)c(=O)cc1C(NC(C)=O)CC2 (some centres not stated) | 56.6 |
| CCCCC[C@H](O)/C=C/[C@@H]1[C@@H](C/C=C\CCCC(=O)O)[C@@H](O)C[C@H]1O (tested in a mixture with another compound) | 101 |
| NCC1OC(O[C@@H]2[C@H](O)C(OC3C(O)C(N)CC(N)C3OC3OC(CO)C(O)C(O)C3N)O[C@@H]2CO)C(N)C(O)C1O (some centres not stated) | 14.4 |
| COc1cc([C@@H]2c3cc4c(cc3[C@@H](O[C@@H]3O[C@@H]5CO[C@@H](C)O[C@H]5[C@H](O)[C@H]3O)C3COC(=O)[C@@H]32)OCO4)cc(OC)c1O (some centres not stated) | 20.9 |
| C[N+]1(C)C[C@@H](O)C[C@H]1C(=O)[O-] | 28.3 |
| CC[C@]12CCCN3CCc4c(n(c5ccccc45)[C@](O)(C(=O)OC)C1)[C@@H]32 | 15.4 |
| COc1ccc2c(OC)c3ccoc3nc2c1OC | 16.3 |
| CN1[C@@H](C[C@H](O)c2ccccc2)CCC[C@H]1CC(=O)c1ccccc1 | 26.3 |
| CC(=O)S[C@@H]1CC2=CC(=O)CC[C@]2(C)[C@H]2CC[C@@]3(C)[C@@H](CC[C@]34CCC(=O)O4)[C@H]12 | 162 |
| O=C1OC(C(O)CO)C(O)=C1O (configuration not stated) | 10.1 |
| COc1c(O)cc2c(c1O)C1OC(CO)C(O)C(O)C1OC2=O (configuration not stated) | 18.9 |
| CCCC(=O)Nc1ncnc2c1ncn2[C@@H]1O[C@@H]2COP(=O)(O)O[C@@H]2C1OC(=O)CCC (some centres not stated) | 80 |
| CC1OC(O[C@H]2/C=C/C=C/C=C/C=C/C=C/C=C/C=C/[C@H](C)[C@@H](O)[C@@H](C)[C@H](C)OC(=O)C[C@H](O)C[C@H](O)CC[C@@H](O)[C@H](O)C[C@H](O)C[C@]3(O)C[C@H](O)[C@@H](C(=O)O)[C@H](C2)O3)C(O)C(N)C1O (some centres not stated) | 94.6 |
| S=C(Nc1ccccc1)Nc1nccs1 | 65.3 |
| O=C(O)CCCC[C@@H]1SCC2NC(=O)NC21 (some centres not stated) | 79.8 |
| C[C@@H]1C(=O)O[C@H]2CC34[C@H]5C[C@@H](C(C)(C)C)C36[C@@H](OC(=O)[C@@H]6O)OC4(C(=O)O5)[C@]21O (some centres not stated) | 57.6 |
| CCC(C(=O)C(C)C(O)C(C)CCc1ccc(C)c(O)c1C(=O)O)[C@H]1O[C@](CC)([C@H]2CCC(O)(CC)[C@H](C)O2)C[C@@H]1C (some centres not stated) | 130 |
| CNc1ncnc2c1ncn2[C@@H]1O[C@H](CO)[C@@H](O)[C@H]1O | 64.6 |
| c1ccc(CNc2ncnc3nc[nH]c23)cc1 | 11.7 |
| COC(=O)[C@H]1[C@H]2C[C@@H]3c4[nH]c5cc(OC)ccc5c4CCN3C[C@H]2C[C@@H](OC(=O)/C=C/c2cc(OC)c(OC)c(OC)c2)[C@@H]1OC | 61 |
| CC[C@@]1([C@@H]2O[C@@H]([C@H]3O[C@@](O)(CO)[C@H](C)C[C@@H]3C)C[C@@H]2C)CC[C@H]([C@]2(C)CC[C@]3(C[C@H](O)[C@@H](C)[C@@H]([C@@H](C)[C@@H](OC)C(C)C(=O)O)O3)O2)O1 (some centres not stated) | 168 |
| On1ccccc1=S | 9 |
| C[C@H](CCC(=O)O)[C@H]1CC[C@H]2[C@@H]3C(O)C[C@@H]4CC(O)CC[C@]4(C)[C@H]3CC[C@]12C (some centres not stated) | 167 |
| O=C1C=CC(=O)c2c1ccc1c2ccc2ccccc21 | 25.9 |
| COC(=O)C1[C@H]2C[C@H]3c4[nH]c5ccccc5c4CCN3C[C@H]2CC[C@@H]1O (some centres not stated) | 78.8 |
| CC1(C)S[C@@H]2[C@H](NC(=O)C(NC(=O)N3CCNC3=O)c3ccccc3)C(=O)N2[C@H]1C(=O)O (some centres not stated) | 25.1 |
| CC1CCC2(OC1)O[C@H]1C[C@H]3[C@@H]4CC[C@H]5C[C@@H](O)CC[C@]5(C)[C@H]4CC(=O)[C@]3(C)[C@H]1[C@@H]2C (some centres not stated) | 74.2 |
